- experimental_system: binding partner of C5A (XPA23)
- protocol_details: Biacore
Reported fold affinity vs original values are given for each entry in this list.

>  <binder>
C5A (XPA23) VH F33E (antibody, V domains shown) VH: EVQLLESGGGLVQPGGSLRLSCAASGFTFSKYEMFWVRQAPGKGLEWVSVISPSGGMTRYADSVKGRFTISRDNSKNTLYLQMNSLRAEDTAVYYCARVGYGGNSDYWGQGTLVTVSS VL: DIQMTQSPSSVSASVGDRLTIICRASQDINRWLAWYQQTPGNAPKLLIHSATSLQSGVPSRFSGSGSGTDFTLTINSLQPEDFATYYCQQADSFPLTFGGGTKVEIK

>  <u>
fold

>  <fold affinity vs original>
0.86

$$$$
>  <binder>
C5A (XPA23) VH D106S (antibody, V domains shown) VH: EVQLLESGGGLVQPGGSLRLSCAASGFTFSKYFMFWVRQAPGKGLEWVSVISPSGGMTRYADSVKGRFTISRDNSKNTLYLQMNSLRAEDTAVYYCARVGYGGNSSYWGQGTLVTVSS VL: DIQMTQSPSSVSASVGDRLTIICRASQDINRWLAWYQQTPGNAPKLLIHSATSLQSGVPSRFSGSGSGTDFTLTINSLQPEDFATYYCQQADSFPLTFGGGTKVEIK

>  <u>
fold

>  <fold affinity vs original>
0.03

$$$$
>  <binder>
C5A (XPA23) VH F33D (antibody, V domains shown) VH: EVQLLESGGGLVQPGGSLRLSCAASGFTFSKYDMFWVRQAPGKGLEWVSVISPSGGMTRYADSVKGRFTISRDNSKNTLYLQMNSLRAEDTAVYYCARVGYGGNSDYWGQGTLVTVSS VL: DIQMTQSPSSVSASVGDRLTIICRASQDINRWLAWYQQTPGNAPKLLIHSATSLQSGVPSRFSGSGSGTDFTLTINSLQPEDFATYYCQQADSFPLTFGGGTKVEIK

>  <u>
fold

>  <fold affinity vs original>
0.92

$$$$

Data provenance: patent US20110118447A1
